Source: patent US20250051337A1

target: STK4 (Homo sapiens (Human), UniProt Q13043); assay: ADP-Glo kinase assay, STK4; assay type: biochemical; conditions: ADP-Glo, 50 μM ATP; read-out: STK4 IC50
Sequence (Q13043 whole entry): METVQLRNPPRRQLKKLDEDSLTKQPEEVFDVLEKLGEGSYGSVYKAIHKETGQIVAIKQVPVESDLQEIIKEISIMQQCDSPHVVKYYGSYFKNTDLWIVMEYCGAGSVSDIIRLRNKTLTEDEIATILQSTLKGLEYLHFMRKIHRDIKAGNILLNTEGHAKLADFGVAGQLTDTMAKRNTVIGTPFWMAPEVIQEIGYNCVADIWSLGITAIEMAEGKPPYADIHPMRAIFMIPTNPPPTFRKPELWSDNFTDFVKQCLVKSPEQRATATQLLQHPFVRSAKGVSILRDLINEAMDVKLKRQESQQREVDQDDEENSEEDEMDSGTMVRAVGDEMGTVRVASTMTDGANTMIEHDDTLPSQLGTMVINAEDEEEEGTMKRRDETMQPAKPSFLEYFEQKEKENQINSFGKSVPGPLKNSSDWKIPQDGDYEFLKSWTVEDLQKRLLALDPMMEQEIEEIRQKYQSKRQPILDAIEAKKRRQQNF
What IC50 was measured for each of the following?

Reference set (3 entries):
- molecule: "CC(=O)c1ccc(-c2c[nH]c3ncnc(N4CCOCC4)c23)cc1"
  IC50: "1000 to 5000 nM"
- molecule: "Cc1cccc(CNc2ncnc3[nH]cc(-c4cccc(Cl)c4)c23)c1"
  IC50: "> 5000 nM"
- molecule: "COc1ncc(-c2c[nH]c3ncnc(N4CCOCC4)c23)cn1"
  IC50: "> 5000 nM"

Could I get IC50 for every one of these entries?
1. CCNc1ncnc2[nH]cc(-c3cccc(Cl)c3)c12
2. Clc1cccc(-c2c[nH]c3ncnc(NCc4cnco4)c23)c1
3. CCCNc1ncnc2[nH]cc(-c3cccc(Cl)c3)c12
4. CC1CCN(c2ncnc3[nH]cc(-c4cccc(Cl)c4)c23)CC1
5. Clc1cccc(-c2c[nH]c3ncnc(N4CCN(c5ccccc5)CC4)c23)c1
6. C=CC(=O)Cc1nc(N2CCOCC2)c2c(-c3cccc(Cl)c3)c[nH]c2n1
7. OC1CCN(c2ncnc3[nH]cc(-c4cccc(Cl)c4)c23)CC1
8. Cn1cc(-c2cccc(Cl)c2)c2c(N3CCOCC3)ncnc21

Output line:
< 1000 nM
> 5000 nM
< 1000 nM
< 1000 nM
> 5000 nM
> 5000 nM
< 1000 nM
> 5000 nM

====

assay: in vivo; conditions: female, C57BL/6J, mouse, ip, 10 mg/kg
recordedMetric: Tmax (min)
Numbers only, in min.

Please give Tmax for each item listed below.
1. NC(=O)c1cccc(-c2c[nH]c3ncnc(N4CCOCC4)c23)c1
2. CC(=O)NC1CCN(c2ncnc3[nH]cc(-c4cccc(Cl)c4)c23)CC1

Output line:
[30, 15]

Input line: I am curious: what Tmax value has been reported for OC1CCN(c2ncnc3[nH]cc(-c4cccc(Cl)c4)c23)CC1 ?
Output line: 15

====

assay: in vivo; conditions: female, C57BL/6J, mouse, ip, 10 mg/kg
I'd appreciate it if you could supply Cmax values for the items below.
Numbers only, in µM.

- sampleSmiles: "NC(=O)c1cccc(-c2c[nH]c3ncnc(N4CCOCC4)c23)c1"
  testValue: 10.9
- sampleSmiles: "OC1CCN(c2ncnc3[nH]cc(-c4cccc(Cl)c4)c23)CC1"
  testValue: 5.8

Attention now shifts to the item below.
Input line: Please look up its Cmax: CC(=O)NC1CCN(c2ncnc3[nH]cc(-c4cccc(Cl)c4)c23)CC1
Output line: 11.8

====

biological target: STK3 (Homo sapiens (Human), UniProt Q13188); assay: ADP-Glo kinase assay, STK3; format: biochemical; conditions: ADP-Glo, 50 μM ATP; read-out: STK3 IC50
Sequence (Q13188 whole entry): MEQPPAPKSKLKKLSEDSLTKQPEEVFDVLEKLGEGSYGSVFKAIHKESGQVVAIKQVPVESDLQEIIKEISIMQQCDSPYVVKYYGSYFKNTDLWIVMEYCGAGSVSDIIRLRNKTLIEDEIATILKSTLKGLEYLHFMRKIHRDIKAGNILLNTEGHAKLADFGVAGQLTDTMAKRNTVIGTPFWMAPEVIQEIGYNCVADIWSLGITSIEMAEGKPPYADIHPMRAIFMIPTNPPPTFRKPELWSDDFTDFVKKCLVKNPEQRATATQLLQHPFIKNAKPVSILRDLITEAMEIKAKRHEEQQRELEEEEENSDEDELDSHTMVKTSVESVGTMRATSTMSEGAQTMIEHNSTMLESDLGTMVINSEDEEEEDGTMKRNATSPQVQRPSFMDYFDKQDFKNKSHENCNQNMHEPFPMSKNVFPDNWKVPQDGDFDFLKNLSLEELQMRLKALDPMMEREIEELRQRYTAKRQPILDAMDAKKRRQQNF
pIC50: −log10 of the molar value.
recordedMetric: pIC50

- compound: "COCC(C)CNc1ncnc2[nH]cc(-c3cccc(Cl)c3)c12 (stereo not drawn)"
  testValue: "> 6.00"
- compound: "CC(C)CNc1ncnc2[nH]cc(-c3cccc(Cl)c3)c12"
  testValue: "> 6.00"
- compound: "COC1CCN(c2ncnc3[nH]cc(-c4cccc(Cl)c4)c23)CC1"
  testValue: "> 6.00"
- compound: "CN1CCC(Nc2ncnc3[nH]cc(-c4cccc(Cl)c4)c23)CC1"
  testValue: "5.30 to 6.00"
- compound: "Clc1cccc(-c2c[nH]c3ncnc(NCc4cnc[nH]4)c23)c1"
  testValue: "< 5.30"

Below are 3 compounds. Give each one its pIC50.
1. Cn1cc(-c2c[nH]c3ncnc(N4CCOCC4)c23)cn1
2. Clc1cccc(-c2coc3ncnc(N4CCOCC4)c23)c1
3. CCN(CC)CCNc1ncnc2[nH]cc(-c3cccc(Cl)c3)c12

Output line:
["5.30 to 6.00", "< 5.30", "< 5.30"]

Input line: Requested field: pIC50. Item: COc1ccccc1CNc1ncnc2[nH]cc(-c3cccc(Cl)c3)c12
Output line: 5.30 to 6.00

====

assay: In vivo plasma and liver concentrations, 20 mg/kg intraperitoneal; conditions: female, C57BL/6J, mouse, ip, 20 mg/kg
For each record, write down the corresponding log10(concentration at 1 h).
The figures below represent log10 of concentration at 1 h, where concentration at 1 h is stated in µM.

Example results:
- compound: "CC(=O)NC1CCN(c2ncnc3[nH]cc(-c4cccc(Cl)c4)c23)CC1 [Compound 105]"
  log10(concentration at 1 h): 0.66
- compound: "Fc1cccc(-c2c[nH]c3ncnc(N4CCOCC4)c23)c1 [Compound 7]"
  log10(concentration at 1 h): 1.17
- compound: "NC(=O)c1cccc(-c2c[nH]c3ncnc(N4CCOCC4)c23)c1 [Compound 11]"
  log10(concentration at 1 h): 1.37

Hi! Can you tell me log10(concentration at 1 h) for each of these compounds?
1. CNC1CCN(c2ncnc3[nH]cc(-c4cccc(Cl)c4)c23)CC1 [Compound 106]
2. CN(CCO)c1ncnc2[nH]cc(-c3cccc(Cl)c3)c12 [Compound 108]
3. Cc1cccc(-c2c[nH]c3ncnc(N4CCOCC4)c23)c1 [Compound 5]

Output line:
1: 0.89; 2: -0.05; 3: 0.86

====

Hi there, I'd appreciate the recorded IC50 for every entry that follows.
target: STK4 (Homo sapiens (Human), UniProt Q13043); experiment: ADP-Glo kinase assay, STK4; assay type: biochemical; details: ADP-Glo, 50 μM ATP; read-out: STK4 IC50

Guide cases for IC50, answers given:
- sampleSmiles: "NS(=O)(=O)c1ccc(Nc2nc(N3CCOCC3)c3c(-c4cccc(Cl)c4)c[nH]c3n2)cc1"
  testValue: "< 1000 nM"
- sampleSmiles: "FC(F)(F)Oc1ccc(-c2c[nH]c3ncnc(N4CCOCC4)c23)cc1"
  testValue: "1000 to 5000 nM"

Here are 2 molecules. What values of IC50 were reported for them?
1. c1ncc(-c2c[nH]c3ncnc(N4CCOCC4)c23)cn1
2. CCCCNc1ncnc2[nH]cc(-c3cccc(Cl)c3)c12

Output line:
1. > 5000 nM
2. < 1000 nM

Input line: IC50 for Cc1ccc(CNc2ncnc3[nH]cc(-c4cccc(Cl)c4)c23)cc1C ?
Output line: > 5000 nM

====

molecular target: STK4 (Homo sapiens (Human), UniProt Q13043)
recordedMetric: Ki (µM)
Answers are plain numbers, in µM.

- sampleSmiles: "Clc1cccc(-c2c[nH]c3nccc(N4CCOCC4)c23)c1"
  recordedMetric: "Ki"
  testValue: 0.033

Input line: Lab note: need Ki with STK4 (Homo sapiens (Human), UniProt Q13043) for entry Clc1cccc(-c2c[nH]c3ncnc(N4CCOCC4)c23)c1 , please look it up.
Output line: 0.052

====

target: STK3 (Homo sapiens (Human)); assay: ADP-Glo kinase assay, STK3; format: biochemical
pIC50: −log10 of the molar value.
recordedMetric: pIC50

# count of solved cases: 2
- compound: "O=C1CCN(c2ncnc3[nH]cc(-c4cccc(Cl)c4)c23)CC1 [Compound 118]"
  pIC50: "5.30 to 6.00"
- compound: "Clc1cccc(-c2n[nH]c3ncnc(N4CCOCC4)c23)c1 [Compound 19]"
  pIC50: "5.30 to 6.00"

Proceeding to the next compound to report its pIC50.
Input line: Quick check: pIC50 of Cc1ccc(-c2c[nH]c3ncnc(N4CCOCC4)c23)cc1 [Compound 9] ?
Output line: 5.30 to 6.00

====

molecular target: STK3 (Homo sapiens (Human), UniProt Q13188); experiment: NanoBRET intracellular kinase assay, STK3; type: cell-based
pIC50: −log10 of the molar value.
recordedMetric: pIC50

Input line: What value of measured pIC50 is listed for Clc1cccc(-c2c[nH]c3ncnc(N4CCCCC4)c23)c1 ?
Output line: 5.30 to 6.00

====

molecular target: STK4 (Homo sapiens (Human)); test: ADP-Glo kinase assay, STK4; assay type: biochemical; details: ADP-Glo, 50 μM ATP; read-out: STK4 IC50
pIC50: −log10 of the molar value.
Give measured pIC50 for each item. Keep answers brief.

Completed entries (count: 5):
- compound: "COCCNc1ncnc2[nH]cc(-c3cccc(Cl)c3)c12"
  pIC50: "< 5.30"
- compound: "CC(C)CCNc1ncnc2[nH]cc(-c3cccc(Cl)c3)c12"
  pIC50: "5.30 to 6.00"
- compound: "COc1ccc(CCNc2ncnc3[nH]cc(-c4cccc(Cl)c4)c23)cc1OC"
  pIC50: "5.30 to 6.00"
- compound: "COC(=O)c1ccc(Nc2nc(N3CCOCC3)c3c(-c4cccc(Cl)c4)c[nH]c3n2)cc1"
  pIC50: "< 5.30"
- compound: "CC(C)CNc1ncnc2[nH]cc(-c3cccc(Cl)c3)c12"
  pIC50: "> 6.00"

Lab note: each compound below needs its pIC50 filled in.
1. CCN1CCCC1CNc1ncnc2[nH]cc(-c3cccc(Cl)c3)c12 (stereo not shown)
2. Clc1cccc(-c2coc3nccc(N4CCOCC4)c23)c1
3. Clc1cccc(-c2c[nH]c3ncnc(NCCN4CCOCC4)c23)c1
4. Cc1cnccc1-c1c[nH]c2ncnc(N3CCOCC3)c12
5. Clc1ncccc1-c1c[nH]c2ncnc(N3CCOCC3)c12
6. COCC(C)CN(C)c1ncnc2[nH]cc(-c3cccc(Cl)c3)c12 (stereo not shown)

Output line:
< 5.30
< 5.30
5.30 to 6.00
< 5.30
< 5.30
5.30 to 6.00
